molecular target: T1, PSMA Fab (006 PSMA Fab); assay: clonal phage ELISA on captured PSMA Fab, wells pre-incubated with PSMA antigen as competitor
T1 construct: also called Anti-PSMA Fab
Measured Attribute: Phage binding ELISA signal, Anti-PSMA Fab in presence of PSMA

1) SPSYCVPKWMCVGF (Peptide-180 library clone, tested as clonal phage supernatant with the peptide fused to pIII of the bacteriophage) [Phage-3564] :: 0.0712
2) PEAYCVPSWMCTGF (Peptide-180 library clone, tested as clonal phage supernatant with the peptide fused to pIII of the bacteriophage) [Phage-3568] :: 0.0764
3) VPTLCKPSWMCYGF (Peptide-180 library clone, tested as clonal phage supernatant with the peptide fused to pIII of the bacteriophage) [Phage-3572] :: 0.0941
4) VSTMCVPEWMCGGF (Peptide-180 library clone, tested as clonal phage supernatant with the peptide fused to pIII of the bacteriophage) [Phage-3566] :: 0.122
5) DAMLCRPSWMCDGF (Peptide-180 library clone, tested as clonal phage supernatant with the peptide fused to pIII of the bacteriophage) [Phage-3567] :: 0.0871
6) VAQWCTPSWMCDGF (Peptide-180 library clone, tested as clonal phage supernatant with the peptide fused to pIII of the bacteriophage) [Phage-3569] :: 0.0794
7) FIAQCQPTWMCTGF (Peptide-180 library clone, tested as clonal phage supernatant with the peptide fused to pIII of the bacteriophage) [Phage-3575] :: 0.076
8) AWMRCEPAWMCVGF (Peptide-180 library clone, tested as clonal phage supernatant with the peptide fused to pIII of the bacteriophage) [Phage-3573] :: 0.0695
9) DDIRCEPIWMCTGF (Peptide-180 library clone, tested as clonal phage supernatant with the peptide fused to pIII of the bacteriophage) [Phage-3562] :: 0.0657
10) ELLKCVPQWMCTGF (Peptide-180 library clone, tested as clonal phage supernatant with the peptide fused to pIII of the bacteriophage) [Phage-3565] :: 0.126
11) EDIKCIPRWMCEGF (Peptide-180 library clone, tested as clonal phage supernatant with the peptide fused to pIII of the bacteriophage) [Phage-3574] :: 0.0923
12) EMPLCIPQWMCGGF (Peptide-180 library clone, tested as clonal phage supernatant with the peptide fused to pIII of the bacteriophage) [Phage-3571] :: 0.0691
13) EHRICVPQWMCTGF (Peptide-180 library clone, tested as clonal phage supernatant with the peptide fused to pIII of the bacteriophage) [Phage-3563] :: 0.0676
14) VDKACTPAWMCTGF (Peptide-180 library clone, tested as clonal phage supernatant with the peptide fused to pIII of the bacteriophage) [Phage-3570] :: 0.0716
